# Lookup of reported Kd keyed by entry
target: T1, hVISTA-ECD 6-His tag (human, UniProt Q9H7M9 33-193); test: SPR 37 C, Ab on Protein A, pH 6.0
T1 construct: also called monovalent hVISTA-ECD; human VISTA
T1 sequence (Q9H7M9 other isoform, or with tags, fused parts or gaps limits assumed): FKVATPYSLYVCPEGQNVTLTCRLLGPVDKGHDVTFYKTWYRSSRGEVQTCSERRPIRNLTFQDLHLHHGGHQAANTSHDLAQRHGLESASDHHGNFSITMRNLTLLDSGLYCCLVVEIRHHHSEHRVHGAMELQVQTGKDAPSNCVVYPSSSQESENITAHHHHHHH
attribute.measured: Kd

binder	endpoint.value
P1-077863 (P1-068744 E59Y E102Y) (antibody, V domains shown) VH: QVQLVESGGGVVQPGRSLRLSCAASGFTFSEYAMHWVRQAPGKGLEWVAHIWYDGSNKYYADSVKGRFTISRDNSKNTLYLQMNSLRAEDTAVYYCARDSGFYESYYFDYWGQGTLVTVSS VL: EIVLTQSPATLSLSPGERATLSCRASQSVSSSYLAWYQQKPGQAPRLLIYDASNRATGIPARFSGSGSGTDFTLTISSLEPEDFATYYCQQYNSYPYTFGQGTKLEIK	130 nM
P1-077835 (P1-068744 E31S) (antibody, V domains shown) VH: QVQLVESGGGVVQPGRSLRLSCAASGFTFSSYAMHWVRQAPGKGLEWVAHIWYDGSNKYEADSVKGRFTISRDNSKNTLYLQMNSLRAEDTAVYYCARDSGFYESYYFDEWGQGTLVTVSS VL: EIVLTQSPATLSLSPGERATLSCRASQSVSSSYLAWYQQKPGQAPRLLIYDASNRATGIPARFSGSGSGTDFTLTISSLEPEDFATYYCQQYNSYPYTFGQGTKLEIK	7.7 nM
P1-077849 (P1-068744 E59Y E100S) (antibody, V domains shown) VH: QVQLVESGGGVVQPGRSLRLSCAASGFTFSEYAMHWVRQAPGKGLEWVAHIWYDGSNKYYADSVKGRFTISRDNSKNTLYLQMNSLRAEDTAVYYCARDSGFYSSYYFDEWGQGTLVTVSS VL: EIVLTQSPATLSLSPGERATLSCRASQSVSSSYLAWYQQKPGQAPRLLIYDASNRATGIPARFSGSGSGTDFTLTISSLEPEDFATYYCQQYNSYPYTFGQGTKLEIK	220 nM

Reference source for all entries: patent US20230192860A1
